biological target: FP receptor (Homo sapiens (Human)); test: In vitro test of inhibition of human FP receptor activity (PGF2α-induced calcium flux in FP-expressing CHEM1 cells); conditions: PGF2α-induced (2 nM) calcium flux in FP-expressing CHEM1 cells; some as mean values from multiple determinations
Sequence (P43088 whole entry): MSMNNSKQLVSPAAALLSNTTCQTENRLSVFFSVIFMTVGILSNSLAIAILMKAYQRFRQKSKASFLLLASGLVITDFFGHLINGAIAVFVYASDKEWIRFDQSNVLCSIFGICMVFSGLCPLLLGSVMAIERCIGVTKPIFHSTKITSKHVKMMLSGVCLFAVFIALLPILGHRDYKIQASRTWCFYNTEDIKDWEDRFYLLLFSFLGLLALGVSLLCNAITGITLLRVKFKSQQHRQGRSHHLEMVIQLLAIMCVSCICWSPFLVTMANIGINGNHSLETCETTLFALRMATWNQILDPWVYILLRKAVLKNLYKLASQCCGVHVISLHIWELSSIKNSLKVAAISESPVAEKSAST
pIC50: −log10 of the molar value.
endpoint.name: pIC50

Below, each entry is followed by its recorded pIC50 result.
[[record]]
compound = "COc1ccccc1C(CNC(=O)c1c(C)c(-c2ccccc2)nc2ccc(Br)cc12)C(=O)O (single isomer, unassigned; (-)) [Example 8]"
measured = 6.89

[[record]]
compound = "Cc1c(-c2ccccc2)nc2ccc(Br)cc2c1C(=O)NCC(CC(=O)O)c1c(F)cccc1Cl (single isomer, unassigned; (-)) [Example 88]"
measured = 7.72

[[record]]
compound = "O=C(O)CCC(CNC(=O)c1c(Cl)c(-c2ccccc2)nc2ccc(Br)cc12)c1ccccc1C(F)(F)F (racemic) [Example 215]"
measured = 8.27


a. CCOc1ccccc1C(CNC(=O)c1c(C)c(-c2ccccc2)nc2ccc(Br)cc12)CC(=O)O (racemic) [Example 129]
b. Cc1c(-c2ccccc2)nc2ccc(Br)cc2c1C(=O)NCC(CCC(=O)O)c1ccccc1OC(F)(F)F (single isomer, unassigned; (+)) [Example 210]
c. Cc1c(-c2ccccc2)nc2ccc(Br)cc2c1C(=O)NCC(CCC(=O)O)c1c(Cl)ccc(F)c1F (single isomer, unassigned; (-)) [Example 201]
With regard to pIC50, arrange the entries in ascending order, please. # list labels per requested ordering
a, b, c

P. Cc1c(-c2ccccc2)nc2ccc(Br)cc2c1C(=O)NCC(C)(C(=O)O)c1cccc(C(F)(F)F)c1 (single isomer, unassigned; (-)) [Example 42]
Q. Cc1c(-c2ccccc2)nc2ccc(Br)cc2c1C(=O)NCC(CC(=O)O)c1ccccc1OC(F)(F)F (racemic) [Example 99]
Please indicate which entry, P or Q , has the lower recorded pIC50 value. Identify your selection by its label.
P

A. Cc1c(-c2ccccc2)nc2ccc(Br)cc2c1C(=O)NCC(C)(C(=O)O)c1c(F)cccc1Cl (single isomer, unassigned; (+)) [Example 61]
B. Cc1ccccc1C(CNC(=O)c1c(C)c(-c2ccccc2)nc2ccc(Br)cc12)CC(=O)O (single isomer, unassigned; (+)) [Example 77]
Determine, for A and B , which has the greater value of pIC50. Identify your selection by its label.
B
(B: 7.07, A: 6.64)

P. COc1ccccc1C(CNC(=O)c1c(C)c(-c2ccccc2)nc2ccc(Br)cc12)N1CCC(C(=O)O)C1 (stereo not drawn)
Q. Cc1c(-c2ccccc2)nc2ccc(Br)cc2c1C(=O)NCC(CCC(=O)O)c1ccccc1OC(F)F (racemic) [Example 178]
Please indicate which entry, P or Q , has the lower recorded pIC50 value. Identify your selection by its label.
P
(P: 7.03, Q: 8.19)

###

biological target: UniProt P43088; assay: In vitro test of inhibition of human FP receptor activity (PGF2α-induced calcium flux in FP-expressing CHEM1 cells); details: PGF2α-induced (2 nM) calcium flux in FP-expressing CHEM1 cells; some as mean values from multiple determinations
endpoint.name: IC50 (nM)

Below, each entry is followed by its recorded IC50 result.
[[record]]
molecule = "Cc1c(-c2ccccc2)nc2ccc(Br)cc2c1C(=O)NCC(c1ccccc1Cl)S(=O)(=O)CC(=O)O (single isomer, unassigned) [Example 199]"
tgt = "UniProt P43088"
measured = 25

[[record]]
molecule = "CCC(CNC(=O)c1c(C)c(-c2ccccc2)nc2ccc(Br)cc12)(C(=O)O)c1ccccc1 (single isomer, unassigned; (+)) [Example 18]"
tgt = "UniProt P43088"
measured = 120

[[record]]
molecule = "Cc1c(-c2ccccc2)nc2ccc(Br)cc2c1C(=O)NCC(CC(=O)O)c1c(F)cccc1Cl (single isomer, unassigned; (+)) [Example 89]"
tgt = "UniProt P43088"
measured = 27


I. Cc1ccccc1C(CNC(=O)c1c(C)c(-c2ccccc2)nc2ccc(Br)cc12)CC(=O)O (single isomer, unassigned; (-)) [Example 76]
II. Cc1c(-c2ccccc2)nc2ccc(Br)cc2c1C(=O)NCC(C)(C(=O)O)c1ccccc1F (racemic) [Example 29]
III. Cc1c(-c2ccccc2)nc2ccc(Br)cc2c1C(=O)NCC(CCC(=O)O)c1ccccc1F (single isomer, unassigned; (-)) [Example 176]
With regard to IC50, arrange the entries in ascending order, please. # list labels per requested ordering
III, I, II
